Where do these numbers come from? They come from the supplement of paper PMC13207355.

- System: E13 (patient-derived glioblastoma stem cells of classical subtype)
- protocol: surviving fraction (nuclei count normalised to DMSO); higher = more cells surviving (less toxic)
- cond: 111.1 nM; exposure time: 72 h
Where a name gives a salt, the structure may show the parent alone.
surviving fraction reference
Form rule: numeric answer, no unit written next to it.

[[record]]
molecule = "CCCCC1C(=O)N(c2ccccc2)N(c2ccc(O)cc2)C1=O (configuration not stated)"
property_measured = "surviving fraction"
measured_result = 1.1

[[record]]
molecule = "CC(NCCC(c1ccccc1)c1ccccc1)c1ccccc1 (configuration not stated) [Fendiline hydrochloride]"
property_measured = "surviving fraction"
measured_result = 0.898

[[record]]
molecule = "COc1ccc([C@@H]2CC(=O)c3c(O)cc(O[C@@H]4O[C@H](CO[C@@H]5O[C@@H](C)[C@H](O)[C@@H](O)[C@H]5O)[C@@H](O)[C@H](O)[C@H]4O)cc3O2)cc1O"
property_measured = "surviving fraction"
measured_result = 0.963

[[record]]
molecule = "CCn1cc(-c2ccnc3[nH]c(-c4cccc(CN(C)C)c4)cc23)c(-c2ccc(NC(=O)N(C)C)cc2)n1"
property_measured = "surviving fraction"
measured_result = 0.46

[[record]]
molecule = "COc1ccc2c(c1)CC[C@@H]1[C@@H]2CC[C@]2(C)[C@@H](NCCCCCCN3C(=O)CCC3=O)CC[C@@H]12"
property_measured = "surviving fraction"
measured_result = 0.929


Value of surviving fraction reported for the molecule `CCc1c2c(nc3ccc(OC(=O)N4CCC(N5CCCCC5)CC4)cc13)-c1cc3c(c(=O)n1C2)COC(=O)[C@]3(O)CC` is 0.975

According to the records, this molecule Cn1nnc2c(C(N)=O)ncn2c1=O [Temozolomide] displays surviving fraction of 0.981

// sample CC(=O)CC(c1ccc([N+](=O)[O-])cc1)c1c(O)c2ccccc2oc1=O (configuration not stated) , its surviving fraction was 1.03

Record Nc1ccn([C@@H]2O[C@H](CO)[C@@H](O)C2(F)F)c(=O)n1 [Gemcitabine HCl] , field surviving fraction: 0.351

Looking up CC1(C)S[C@@H]2[C@H](NC(=O)Cc3ccccc3)C(=O)N2[C@H]1C(=O)O [Benzylpenicillin sodium] , I found its surviving fraction recorded as 1.17

# surviving fraction of `Cc1ccc2c(c1)C1(CCN(CCc3nc(-c4ccccc4)oc3C)CC1)OC(=O)N2` = 1.07

----------
Overview of recorded surviving fraction for various compounds
- System: E13
- protocol: surviving fraction (nuclei count normalised to DMSO); higher = more cells surviving (less toxic)
- cond: 4.1 nM; exposure time: 72 h
Where a name gives a salt, the structure may show the parent alone.
Just the number, please, no unit after it.

// known answers, use as guide
[[record]]
compound = "C[C@@H]1CN([C@H]2CC[C@](C#N)(c3ccc(F)cc3)CC2)CC[C@]1(C(=O)O)c1ccccc1 [Levocabastine hydrochloride]"
system = "E13"
property_measured = "surviving fraction"
measured_result = 0.997

[[record]]
compound = "Cc1cc(CN2CCN(c3c(Br)cnc4nc(-c5ccc(N6CCN(C)CC6)cc5)[nH]c34)CC2)no1"
system = "E13"
property_measured = "surviving fraction"
measured_result = 0.995

[[record]]
compound = "C=C[C@H]1CN2CC[C@H]1C[C@@H]2[C@@H](O)c1ccnc2ccc(OC)cc12 [Quinidine hydrochloride monohydrate]"
system = "E13"
property_measured = "surviving fraction"
measured_result = 0.965

[[record]]
compound = "CC[C@H]1CN2CCc3cc(OC)c(OC)cc3[C@@H]2C[C@@H]1C[C@H]1NCCc2cc(OC)c(OC)cc21 [Emetine dihydrochloride hydrate]"
system = "E13"
property_measured = "surviving fraction"
measured_result = 0.771


Short answer for CCCCC(CC)CNC(=N)NC(=N)NCCCCCCNC(=N)NC(=N)NCC(CC)CCCC (configuration not stated) [Alexidine dihydrochloride] : surviving fraction was 0.884

Lab note: measured surviving fraction of CC1CNc2c(cccc2S(=O)(=O)N[C@@H](CCCNC(=N)N)C(=O)N2CC[C@@H](C)C[C@@H]2C(=O)O)C1 (some centres not stated) was 0.887

For record CCC(C)n1ncn(-c2ccc(N3CCN(c4ccc(OCC5COC(Cn6cncn6)(c6ccc(Cl)cc6Cl)O5)cc4)CC3)cc2)c1=O (configuration not stated) the listed surviving fraction is 0.869

----------
Reported phenotypic distance is given for each of the following compounds.
- System: E57 (patient-derived glioblastoma stem cells of mesenchymal subtype);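 further: cell Painting imaging in 384-well plates, CellProfiler features reduced to at least 20 principal components, Euclidean distance versus same-plate DMSO vehicle wells (0.1% v/v), median over six images per well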
- protocol: phenotypic distance (Euclidean, principal components) from DMSO controls (arbitrary units); higher = stronger morphological change
- cond: 333.333 nM; exposure time: 72 h
Counter-ions that a name gives are not always drawn.
I only need the number, thanks.

Observe how each entry below is paired with its result.
[[record]]
compound = "CCN(CC)CCCC(C)Nc1c2ccc(Cl)cc2nc2ccc(OC)cc12 (centres undefined) [Quinacrine dihydrochloride hydrate]"
property_measured = "phenotypic distance"
measured_result = 0.838

[[record]]
compound = "Cc1ccc(NC(=O)c2ccc3c(c2)OCCO3)cc1NC(=O)c1ccc2nc(OCCN3CCCC3)ccc2c1"
property_measured = "phenotypic distance"
measured_result = 3.36

[[record]]
compound = "COC(=O)Nc1nc2cc(C(=O)c3cccs3)ccc2[nH]1 [Nocodazole]"
property_measured = "phenotypic distance"
measured_result = 6.48


Kindly note the recorded phenotypic distance for Cc1[nH]nc(C(F)(F)F)c1Cc1sc2c(c1C(=O)N1C[C@](C)(O)CO1)c(=O)n(C)c(=O)n2C(C)C [AZD3965] , which is 1.79

----------
- System: E34 (patient-derived glioblastoma stem cells of proneural subtype)
- protocol: surviving fraction (nuclei count normalised to DMSO); higher = more cells surviving (less toxic)
- cond: 4.1 nM; exposure time: 72 h
Structures can show the parent of a compound that is named as a salt.
property-measured: surviving fraction
// return a plain number; no unit text

Would you please look over these solved cases?
[[record]]
molecule = "NC1CCN(c2nc3c(cc2F)c(=O)c(C(=O)O)cn3-c2ccc(F)cc2F)C1 (stereo unspecified) [Tosufloxacin hydrochloride]"
measured_result = 0.948

[[record]]
molecule = "COc1cc(NS(C)(=O)=O)ccc1Nc1c2ccccc2nc2ccccc12"
measured_result = 0.977


Sure, the documented surviving fraction for `CN(c1nccc(=O)[nH]1)C1CCN(c2nc3ccccc3n2Cc2ccc(F)cc2)CC1` is 1.16

Summary for this molecule, Cc1c(-c2ccc(-c3ccccc3F)cc2)nc2ccc(F)cc2c1C(=O)O [Brequinar sodium salt hydrate] : surviving fraction is 0.811

Quick note, surviving fraction for COc1cc(N)c(Cl)cc1C(=O)NC1CCN(CCCOc2ccc(F)cc2)CC1OC (stereo unspecified) [Cisapride] landed at 1.06

Reported surviving fraction for `Nc1ccc(-c2ccc3ncc4ccc(=O)n(-c5cccc(C(F)(F)F)c5)c4c3c2)cn1` was 0.986

Short answer for `CCCSc1ccc2[nH]c(NC(=O)OC)nc2c1` : surviving fraction was 0.934

Sample CC(C)NCC(O)c1cc(O)cc(O)c1 (stereo unspecified) [Metaproterenol sulfate, orciprenaline sulfate] ; surviving fraction observed: 0.922

Looking up `CCc1c2c(nc3ccc(OC(=O)N4CCC(N5CCCCC5)CC4)cc13)-c1cc3c(c(=O)n1C2)COC(=O)[C@]3(O)CC` , I see its surviving fraction listed as 1.01

Documented surviving fraction of `Cc1cc(CN2CCN(c3c(Br)cnc4nc(-c5ccc(N6CCN(C)CC6)cc5)[nH]c34)CC2)no1` : 0.839

Recorded surviving fraction (molecule CN[C@@H]1[C@@H](O)[C@@H](O[C@@H]2[C@@H](O)[C@H](O[C@H]3OC(CN)=CC[C@H]3N)[C@@H](N)C[C@H]2N)OC[C@]1(C)O [Sisomicin sulfate] ): 0.838

Measured surviving fraction, `NC(=O)c1cccc2cn(-c3ccc([C@@H]4CCCNC4)cc3)nc12` : 0.963

Entry CC(C)(Oc1ccc(C2CC2(Cl)Cl)cc1)C(=O)O (stereo unspecified) [Ciprofibrate] ; surviving fraction = 1.07

Kindly note the recorded surviving fraction for COc1ccc2[nH]c([S+]([O-])Cc3ncc(C)c(OC)c3C)nc2c1 (stereo unspecified) , which is 1.02

Item: `Nc1ccn([C@H]2CC[C@@H](CO)O2)c(=O)n1` | surviving fraction: 0.869

The recorded surviving fraction for entry CC[C@@]1(O)C(=O)OCc2c1cc1n(c2=O)Cc2cc3cc(O)ccc3nc2-1 [Hydroxy Camptothecine] equals 0.494

Lab book: surviving fraction of `CNc1ccc2oc(C[C@H]3O[C@@]4(CC[C@H]3C)O[C@H]([C@H](C)C(=O)c3ccc[nH]3)[C@H](C)C[C@H]4C)nc2c1C(=O)O` noted as 0.804

The molecule listed as Clc1ccc(CSC(Cn2ccnc2)c2ccc(Cl)cc2Cl)cc1 (stereo unspecified) [Sulconazole nitrate] has a reported surviving fraction of 0.824

Reported surviving fraction of `CC(=O)O[C@@]12CO[C@@H]1C[C@H](O)[C@@]1(C)C(=O)[C@H](O)C3=C(C)[C@@H](OC(=O)[C@H](O)[C@@H](NC(=O)OC(C)(C)C)c4ccccc4)C[C@@](O)([C@@H](OC(=O)c4ccccc4)[C@H]21)C3(C)C` : 0.43

Query `Cc1c2ccncc2c(C)c2c1[nH]c1ccccc12` yields surviving fraction of 1.07

Record `O=C(Oc1cccc2cccnc12)c1ccccc1` , field surviving fraction: 0.906

Just so you know, measured surviving fraction for `CCN(CC)Cc1ccc(C(=O)N(CCc2ccccc2OC)[C@@H]2CCNC2)cc1` came out at 0.806

surviving fraction for CCCCC1C(=O)N(c2ccccc2)N(c2ccc(O)cc2)C1=O (stereo unspecified) is 0.971

Entry C[C@@H]1C[C@@H]([C@H](O)CC2CC(=O)NC(=O)C2)C(=O)[C@@H](C)C1 [Cycloheximide] ; surviving fraction = 0.885

surviving fraction measured on `Cc1cc(Nc2cc(CN3CCOCC3)c3nc(C)c(Cc4ccc(Cl)cc4F)n3n2)n[nH]1` = 0.94
